Reported values of inhibition at 0.05 µM for individual entries
testTarget: Kit (Homo sapiens)
Sequence (P10721 26-976): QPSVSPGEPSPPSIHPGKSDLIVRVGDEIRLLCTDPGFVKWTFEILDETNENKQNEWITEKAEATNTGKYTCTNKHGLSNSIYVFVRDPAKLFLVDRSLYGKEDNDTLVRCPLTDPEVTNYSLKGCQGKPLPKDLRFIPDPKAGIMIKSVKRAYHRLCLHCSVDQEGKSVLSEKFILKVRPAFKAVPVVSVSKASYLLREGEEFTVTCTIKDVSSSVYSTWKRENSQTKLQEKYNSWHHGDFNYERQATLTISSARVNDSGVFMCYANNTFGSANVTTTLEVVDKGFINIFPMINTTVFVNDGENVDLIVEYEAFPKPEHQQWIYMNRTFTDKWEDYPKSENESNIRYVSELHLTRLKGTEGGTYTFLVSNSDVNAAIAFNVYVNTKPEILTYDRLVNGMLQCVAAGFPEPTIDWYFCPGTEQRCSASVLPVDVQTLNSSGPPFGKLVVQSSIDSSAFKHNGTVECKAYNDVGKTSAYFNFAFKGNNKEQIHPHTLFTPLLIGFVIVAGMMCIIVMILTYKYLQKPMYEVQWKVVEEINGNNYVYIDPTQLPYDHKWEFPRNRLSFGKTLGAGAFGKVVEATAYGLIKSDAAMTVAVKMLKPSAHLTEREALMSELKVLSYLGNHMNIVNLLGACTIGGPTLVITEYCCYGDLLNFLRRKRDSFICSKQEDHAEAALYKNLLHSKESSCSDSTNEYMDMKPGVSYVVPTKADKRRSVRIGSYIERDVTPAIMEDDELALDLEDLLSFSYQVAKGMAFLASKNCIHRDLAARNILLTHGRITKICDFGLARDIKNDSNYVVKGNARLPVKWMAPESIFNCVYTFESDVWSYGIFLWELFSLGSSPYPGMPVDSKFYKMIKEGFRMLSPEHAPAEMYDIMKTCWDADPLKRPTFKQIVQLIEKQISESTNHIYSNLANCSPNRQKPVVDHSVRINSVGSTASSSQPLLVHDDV
testMethodNotes: Z'-Lyte biochemical kinase assay (SelectScreen), Kit
experimentalConditions: at 50 nM, in duplicate
Record the value in %, omitting the unit from your answer.

These recorded examples may help you get a feel for the data.
CNc1ccc2c(Oc3cccc(C(=O)NCc4cccc(F)c4)c3C)ccnc2c1 4
Cc1c(Oc2ccnc3cc(N4CCC4)ccc23)cccc1C(=O)NCc1ccncc1 3
COc1ccccc1CNC(=O)c1ccc(F)c(Oc2ccnc3ccccc23)c1 0
O=C(NCc1cccnc1)c1cccc(Oc2ccnc3ccccc23)c1 20
CNc1ccc2c(Oc3cc(C(=O)NCc4ccncc4)ccc3F)ccnc2c1 13

Exercise: Give its inhibition at 0.05 µM value. Item: O=C(NCc1ccncc1)c1cccc(Oc2ccnc3ccccc23)c1
Key: 20

Exercise: Look at this compound and give its reported inhibition at 0.05 µM. COc1ccccc1CNC(=O)c1cc(F)cc(Oc2ccnc3cc(OC)c(OC)cc23)c1
Key: 21

Exercise: Item under review: COc1ccc2c(Oc3cccc(C(=O)NCc4ccncc4)c3C)ccnc2c1 . Reported inhibition at 0.05 µM?
Key: 2

###

testTarget: PDGFRA (Homo sapiens)
Sequence (P16234 24-1089): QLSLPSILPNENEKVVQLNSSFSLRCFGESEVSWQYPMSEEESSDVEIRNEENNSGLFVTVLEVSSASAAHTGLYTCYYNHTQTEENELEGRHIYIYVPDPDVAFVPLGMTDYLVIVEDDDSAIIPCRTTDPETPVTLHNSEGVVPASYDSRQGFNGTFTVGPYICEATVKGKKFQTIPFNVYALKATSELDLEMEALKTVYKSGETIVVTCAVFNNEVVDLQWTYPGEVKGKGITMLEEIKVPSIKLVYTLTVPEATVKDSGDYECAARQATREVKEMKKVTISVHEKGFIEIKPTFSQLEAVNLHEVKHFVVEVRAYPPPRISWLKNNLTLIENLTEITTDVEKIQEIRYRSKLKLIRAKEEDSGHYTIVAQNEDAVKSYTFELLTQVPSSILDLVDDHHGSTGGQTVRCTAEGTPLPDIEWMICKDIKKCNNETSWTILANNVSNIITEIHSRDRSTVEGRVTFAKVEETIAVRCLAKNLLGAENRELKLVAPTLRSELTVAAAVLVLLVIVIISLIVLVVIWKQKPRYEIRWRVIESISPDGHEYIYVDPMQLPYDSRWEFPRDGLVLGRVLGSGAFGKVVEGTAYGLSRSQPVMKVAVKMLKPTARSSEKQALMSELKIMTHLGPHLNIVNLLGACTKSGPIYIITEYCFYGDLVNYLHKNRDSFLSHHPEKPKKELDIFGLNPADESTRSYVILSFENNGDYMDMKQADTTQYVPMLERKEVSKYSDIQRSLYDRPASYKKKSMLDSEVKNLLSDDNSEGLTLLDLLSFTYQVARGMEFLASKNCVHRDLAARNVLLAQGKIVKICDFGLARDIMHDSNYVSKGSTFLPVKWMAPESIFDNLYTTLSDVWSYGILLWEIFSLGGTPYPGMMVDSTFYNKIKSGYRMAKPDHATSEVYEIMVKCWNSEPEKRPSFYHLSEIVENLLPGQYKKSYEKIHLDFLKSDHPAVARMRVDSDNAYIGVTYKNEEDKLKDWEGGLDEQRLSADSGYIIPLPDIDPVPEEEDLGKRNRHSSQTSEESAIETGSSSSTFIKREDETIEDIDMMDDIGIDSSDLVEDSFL
testMethodNotes: Z'-Lyte biochemical kinase assay (SelectScreen), PDGFRA
experimentalConditions: at 50 nM, in duplicate
# inhibition at 0.05 µM binned as I (below 10%), II (10% to below 20%), III (20% or more)

These solved cases illustrate the format of a correct answer.
COc1ccc2c(Oc3cc(C(=O)NCc4ccncc4)ccc3F)ccnc2c1 I
COc1ccc2c(Oc3cc(F)cc(C(=O)NCc4ccccc4OC)c3)ccnc2c1 III
CN(C)c1ccc2c(Oc3cccc(C(=O)NCc4ccncc4)c3)ccnc2c1 II
Cc1c(Oc2ccnc3ccccc23)cccc1C(=O)NCc1cccc(F)c1 I

Exercise: Assign a category based on measured inhibition at 0.05 µM for COc1ccccc1CNC(=O)c1ccc(F)c(Oc2ccnc3ccccc23)c1 and give only the class name.
Key: II

Exercise: Could you tell me which band O=C(NCc1ccncc1)c1cccc(Oc2ccnc3ccccc23)c1 belongs to?
Key: I

Exercise: For COc1ccc2c(Oc3cccc(C(=O)NCc4ccccc4)c3)ccnc2c1 , which inhibition at 0.05 µM bin applies?
Key: III

Exercise: Determine which band this compound sits in: COc1cc2nccc(Oc3cc(C(=O)NCc4cccc(F)c4)ccc3F)c2cc1OC
Key: III

Exercise: Consider COc1cc2nccc(Oc3cccc(C(=O)NCc4cccc(F)c4)c3C)c2cc1OC . To which inhibition at 0.05 µM class does it belong?
Key: III

Exercise: Consider O=C(NCc1cccnc1)c1cccc(Oc2ccnc3ccccc23)c1 . To which inhibition at 0.05 µM class does it belong?
Key: I

###

inhibition at 0.05 µM listing for selected compounds.
testTarget: FLT3 (Homo sapiens)
Sequence (P36888 27-993): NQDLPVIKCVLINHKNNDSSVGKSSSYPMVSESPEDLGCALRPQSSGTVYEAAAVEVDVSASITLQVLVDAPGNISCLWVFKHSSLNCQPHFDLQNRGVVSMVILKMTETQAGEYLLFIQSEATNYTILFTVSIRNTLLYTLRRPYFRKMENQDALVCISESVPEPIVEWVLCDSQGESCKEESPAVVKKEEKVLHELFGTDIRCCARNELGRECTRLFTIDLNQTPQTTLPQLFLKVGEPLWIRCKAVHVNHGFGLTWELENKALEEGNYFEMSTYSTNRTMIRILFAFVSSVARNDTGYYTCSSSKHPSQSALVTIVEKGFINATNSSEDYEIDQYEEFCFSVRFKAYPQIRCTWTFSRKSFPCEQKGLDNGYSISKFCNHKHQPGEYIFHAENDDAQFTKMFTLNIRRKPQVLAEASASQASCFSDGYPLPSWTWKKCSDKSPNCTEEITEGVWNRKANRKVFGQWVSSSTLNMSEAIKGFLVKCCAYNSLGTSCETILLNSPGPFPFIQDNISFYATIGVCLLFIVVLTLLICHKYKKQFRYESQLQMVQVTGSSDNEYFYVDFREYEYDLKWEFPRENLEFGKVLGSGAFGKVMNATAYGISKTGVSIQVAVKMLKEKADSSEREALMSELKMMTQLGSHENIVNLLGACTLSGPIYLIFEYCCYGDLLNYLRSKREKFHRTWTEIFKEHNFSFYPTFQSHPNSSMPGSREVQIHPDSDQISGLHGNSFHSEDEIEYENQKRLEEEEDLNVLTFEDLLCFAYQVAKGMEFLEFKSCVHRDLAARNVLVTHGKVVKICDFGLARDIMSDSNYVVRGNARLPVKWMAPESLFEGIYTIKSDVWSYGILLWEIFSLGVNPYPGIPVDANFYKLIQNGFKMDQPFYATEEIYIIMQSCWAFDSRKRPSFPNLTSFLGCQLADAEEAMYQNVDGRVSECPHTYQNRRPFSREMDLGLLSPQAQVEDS
testMethodNotes: Z'-Lyte biochemical kinase assay (SelectScreen), FLT3
experimentalConditions: at 50 nM, in duplicate
Write the number in % without appending the unit.

COc1ccccc1CNC(=O)c1ccc(F)c(Oc2ccnc3ccccc23)c1 26

Exercise: Give its inhibition at 0.05 µM value. Item: Cc1c(Oc2ccnc3ccccc23)cccc1C(=O)NCc1ccc(C#N)cc1
Key: 10

Exercise: Which measured inhibition at 0.05 µM value corresponds to COc1ccc2c(Oc3cccc(C(=O)NCc4cccc(F)c4)c3C)ccnc2c1 ?
Key: 16

###

testTarget: UniProtKB P07333
testMethodNotes: Z'-Lyte biochemical kinase assay (SelectScreen), CSF1R
experimentalConditions: at 50 nM, in duplicate
measuredProperty: inhibition at 0.05 µM
Form field: result (number plus unit)

Past entries and their recorded results:
COc1cc2nccc(Oc3cccc(C(=O)NCc4cccc(F)c4)c3C)c2cc1OC 85%
COc1cc2nccc(Oc3cccc(C(=O)NCC4CCCCC4)c3)c2cc1OC 93%
O=C(NCc1ccc(F)cc1)c1cccc(Oc2ccnc3ccccc23)c1 81%
COc1ccccc1CNC(=O)c1cccc(Oc2ccnc3cc(OC)c(OC)cc23)c1 102%

Exercise: Give its inhibition at 0.05 µM value. Item: O=C(NCc1cncc(F)c1)c1cccc(Oc2ccnc3ccccc23)c1
Key: 83%

Exercise: Could you share which inhibition at 0.05 µM value was measured for COc1cc2nccc(Oc3cc(C(=O)N[C@H](C)C4CCCCC4)ccc3F)c2cc1OC ?
Key: 82%

Exercise: I am curious: what inhibition at 0.05 µM value has been reported for CNc1ccc2c(Oc3cc(C(=O)NCc4ccncc4)ccc3F)ccnc2c1 ?
Key: 61%

Exercise: Recorded inhibition at 0.05 µM of Cc1c(Oc2ccnc3cc(N(C)C)ccc23)cccc1C(=O)NCc1cccc(F)c1 , please.
Key: 77%

Exercise: Quick one: inhibition at 0.05 µM of COc1ccccc1CNC(=O)c1cccc(Oc2ccnc3ccccc23)c1 ?
Key: 85%

###

testTarget: PDGFRB (Homo sapiens, UniProt P09619)
Sequence (P09619 33-1106): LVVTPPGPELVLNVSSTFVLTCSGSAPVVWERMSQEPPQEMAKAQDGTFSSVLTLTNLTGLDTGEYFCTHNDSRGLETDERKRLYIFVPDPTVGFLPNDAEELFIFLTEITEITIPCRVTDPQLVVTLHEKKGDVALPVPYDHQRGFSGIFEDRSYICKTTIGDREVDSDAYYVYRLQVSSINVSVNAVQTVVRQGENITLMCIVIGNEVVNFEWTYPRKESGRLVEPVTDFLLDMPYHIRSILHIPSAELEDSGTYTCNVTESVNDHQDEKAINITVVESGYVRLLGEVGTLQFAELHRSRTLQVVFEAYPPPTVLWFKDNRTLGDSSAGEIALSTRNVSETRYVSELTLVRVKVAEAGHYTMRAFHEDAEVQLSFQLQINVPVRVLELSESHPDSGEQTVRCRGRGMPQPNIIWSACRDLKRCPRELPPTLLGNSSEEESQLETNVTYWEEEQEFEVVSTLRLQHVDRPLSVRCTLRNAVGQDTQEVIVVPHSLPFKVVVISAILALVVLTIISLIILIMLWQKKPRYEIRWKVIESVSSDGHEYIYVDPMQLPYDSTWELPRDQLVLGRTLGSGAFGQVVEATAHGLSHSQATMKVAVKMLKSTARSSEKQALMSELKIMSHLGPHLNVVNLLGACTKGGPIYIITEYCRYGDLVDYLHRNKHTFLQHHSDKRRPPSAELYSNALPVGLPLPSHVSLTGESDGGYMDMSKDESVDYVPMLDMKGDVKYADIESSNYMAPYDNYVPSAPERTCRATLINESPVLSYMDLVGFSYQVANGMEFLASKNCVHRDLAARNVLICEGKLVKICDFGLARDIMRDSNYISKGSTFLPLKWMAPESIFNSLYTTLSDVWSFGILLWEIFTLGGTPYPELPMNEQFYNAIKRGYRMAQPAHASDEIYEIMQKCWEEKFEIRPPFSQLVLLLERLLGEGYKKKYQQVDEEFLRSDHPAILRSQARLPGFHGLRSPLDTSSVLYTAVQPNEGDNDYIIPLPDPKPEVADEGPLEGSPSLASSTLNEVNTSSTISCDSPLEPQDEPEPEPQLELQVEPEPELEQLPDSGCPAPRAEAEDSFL
testMethodNotes: Z'-Lyte biochemical kinase assay (SelectScreen), PDGFRB
experimentalConditions: at 50 nM, in duplicate
// 0 (no) strictly below 20% in inhibition at 0.05 µM; 1 (yes) otherwise

COc1cc2nccc(Oc3cc(C(=O)NCc4cccc(F)c4)ccc3F)c2cc1OC 1 (yes)
Cc1c(Oc2ccnc3cc(Cl)ccc23)cccc1C(=O)NCc1ccncc1 0 (no)
O=C(NCc1cccnc1)c1cccc(Oc2ccnc3ccccc23)c1 0 (no)
COc1cc2nccc(Oc3cccc(C(=O)NCC4CCCCC4)c3)c2cc1OC 1 (yes)
O=C(NCc1ccncc1)c1cccc(Oc2ccnc3ccccc23)c1 0 (no)
COc1cc2nccc(Oc3cccc(C(=O)NCc4ccccc4)c3)c2cc1OC 1 (yes)
O=C(NCc1cccc(F)c1)c1ccc(F)c(Oc2ccnc3ccccc23)c1 1 (yes)
Cc1c(Oc2ccnc3ccccc23)cccc1C(=O)NCc1cccc(F)c1 0 (no)

Exercise: Hi, just wondering whether COc1cc2nccc(Oc3cccc(C(=O)NCc4cccc(F)c4)c3C)c2cc1OC shows inhibition at 0.05 µM of 20% or higher.
Key: 1 (yes)

Exercise: Could you verify whether the entry Cc1c(Oc2ccnc3ccccc23)cccc1C(=O)NCc1ccc(C#N)cc1 shows inhibition at 0.05 µM of no less than 20%?
Key: 0 (no)

###

testTarget: CSF1R (Homo sapiens, UniProt P07333)
Sequence (P07333 20-972): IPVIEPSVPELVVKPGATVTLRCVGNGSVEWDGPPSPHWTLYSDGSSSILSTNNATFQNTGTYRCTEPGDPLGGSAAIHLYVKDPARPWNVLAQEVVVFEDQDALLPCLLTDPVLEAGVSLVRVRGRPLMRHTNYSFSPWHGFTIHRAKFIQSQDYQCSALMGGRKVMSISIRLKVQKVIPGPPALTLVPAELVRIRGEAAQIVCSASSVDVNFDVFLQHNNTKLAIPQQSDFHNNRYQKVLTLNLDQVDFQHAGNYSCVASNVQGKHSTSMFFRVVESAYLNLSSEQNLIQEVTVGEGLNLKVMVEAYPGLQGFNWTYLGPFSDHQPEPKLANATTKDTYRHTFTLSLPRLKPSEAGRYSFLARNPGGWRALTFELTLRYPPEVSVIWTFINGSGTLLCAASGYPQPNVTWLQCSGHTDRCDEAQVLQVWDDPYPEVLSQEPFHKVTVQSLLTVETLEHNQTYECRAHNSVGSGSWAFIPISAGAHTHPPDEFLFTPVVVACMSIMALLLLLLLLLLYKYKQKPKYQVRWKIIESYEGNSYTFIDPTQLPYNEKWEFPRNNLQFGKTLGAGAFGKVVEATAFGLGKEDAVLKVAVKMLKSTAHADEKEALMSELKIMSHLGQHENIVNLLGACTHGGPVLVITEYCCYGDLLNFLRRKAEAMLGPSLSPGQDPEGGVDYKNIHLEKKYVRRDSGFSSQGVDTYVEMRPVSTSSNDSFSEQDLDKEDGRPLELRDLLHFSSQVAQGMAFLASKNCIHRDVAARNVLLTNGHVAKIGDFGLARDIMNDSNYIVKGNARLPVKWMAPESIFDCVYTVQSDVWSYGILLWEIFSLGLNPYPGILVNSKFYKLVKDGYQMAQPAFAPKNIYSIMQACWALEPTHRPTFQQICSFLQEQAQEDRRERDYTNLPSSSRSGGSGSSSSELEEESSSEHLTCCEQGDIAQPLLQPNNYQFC
testMethodNotes: HEK-CSF1R-STAT5-Luc reporter assay, M-CSF stimulated
Format: cell-based
Parameters: host or cells: HEK293T (ATCC CRL-3216)
experimentalConditions: Table 10; 600 ng/ml M-CSF, 24 h, luciferase; read-out: HEK-CSF1R-STAT5 IC 50
Attribute: IC50
Numbers only; they are read as nM.

Known results for compounds:
compound	unit	IC50
COc1cc2nccc(Oc3cccc(CC(=O)NCc4ccncc4)c3)c2cc1OC [CC400, reference compound]	nM	2270
COc1cc2nccc(Oc3cccc(C(=O)NCc4ccncc4)c3)c2cc1OC [compound 398]	nM	58
COc1cc2nccc(Oc3cccc(NC(=O)Cc4ccncc4)c3)c2cc1OC [CC399, reference compound]	nM	3540

Could you now look at the following compound, please?
Exercise: What does the record list as IC50 for COc1cc2nccc(Oc3cccc(CC(=O)Nc4ccncc4)c3)c2cc1OC [CC401, reference compound] ?
Key: 3850

###

testTarget: CSF1R (Homo sapiens, UniProt P07333)
testMethodNotes: HEK-CSF1R-STAT5-Luc reporter assay, M-CSF stimulated
Format: cell-based
Parameters: host or cells: HEK293T (ATCC CRL-3216)
experimentalConditions: Table 9; 600 ng/ml M-CSF, 24 h, luciferase; read-out: HEK-CSF1R-STAT5 IC 50
Doc: threshold 30 nM (exclusive). Items with IC50 beneath it return 1.0; others return 0.0.

compound	testTarget	assignedClass
COc1ccc2c(Oc3cccc(C(=O)NCc4ccncc4F)c3C)ncnc2c1 [CC 396, reference compound]	CSF1R (Homo sapiens, UniProt P07333)	0.0
COc1ccc2c(Oc3cccc(C(=O)NCc4ccncc4F)c3C)ccnc2c1	CSF1R (Homo sapiens, UniProt P07333)	1.0
COc1ccc2c(Oc3cccc(C(=O)NCc4ccncc4)c3C)ccnc2c1	CSF1R (Homo sapiens, UniProt P07333)	1.0
Cc1c(Oc2ccnc3cc(Cl)ccc23)cccc1C(=O)NCc1ccncc1	CSF1R (Homo sapiens, UniProt P07333)	1.0
COc1ccc2c(Oc3cccc(C(=O)NCc4ccncc4)c3C)ncnc2c1 [CC 395, reference compound]	CSF1R (Homo sapiens, UniProt P07333)	0.0

Exercise: For this compound, is IC50 lower than 30 nM? Cc1c(Oc2ncnc3cc(Cl)ccc23)cccc1C(=O)NCc1ccncc1 [CC 397, reference compound]
Key: 0.0

###

testTarget: Kit (Homo sapiens)
testMethodNotes: Z'-Lyte biochemical kinase assay (SelectScreen), Kit
experimentalConditions: at 50 nM, in duplicate
Catalogue of molecules with associated inhibition at 0.05 µM
Note: unit % is implicit; provide only the numeric part.

Exercise: Reported inhibition at 0.05 µM, molecule COc1cc2nccc(Oc3cccc(C(=O)NCc4ccccc4)c3)c2cc1OC [compound 84] : ____
Key: 34

Exercise: Given the molecule COc1ccc2c(Oc3cc(F)cc(C(=O)NCc4ccccc4OC)c3)ccnc2c1 [compound 88] , what is its reported inhibition at 0.05 µM?
Key: 30

Exercise: Can you look up the measured inhibition at 0.05 µM of COc1cc2nccc(Oc3cc(F)cc(C(=O)N[C@H](C)C4CCCCC4)c3)c2cc1OC [compound 90] for me?
Key: 9

Exercise: Record request: inhibition at 0.05 µM value, item O=C(NCC1CCCCC1)c1cccc(Oc2ccnc3ccccc23)c1 [compound 3]
Key: 7

Exercise: Recorded inhibition at 0.05 µM of Cc1c(Oc2ccnc3ccccc23)cccc1C(=O)NCc1cccc(F)c1 [compound 103] , please.
Key: 7

Exercise: What inhibition at 0.05 µM value was documented for this molecule, O=C(NCc1ccc(F)cc1)c1cccc(Oc2ccnc3ccccc23)c1 [compound 16] ?
Key: 15

Exercise: // query inhibition at 0.05 µM value for entry CNc1ccc2c(Oc3cccc(C(=O)NCc4ccncc4)c3C)ccnc2c1 [compound 148]
Key: 0

Exercise: Please give the measured inhibition at 0.05 µM for this molecule: COc1cc2nccc(Oc3cccc(C(=O)N[C@H](C)c4ccccc4)c3)c2cc1OC [compound 24]
Key: 29

Exercise: Please look up its inhibition at 0.05 µM: COc1ccccc1CNC(=O)c1cccc(Oc2ccnc3ccccc23)c1 [compound 7]
Key: 20

Exercise: inhibition at 0.05 µM for COc1ccc2c(Oc3cccc(C(=O)NCc4ccccc4)c3)ccnc2c1 [compound 85] ?
Key: 31

Exercise: Query (molecule): O=C(NCc1cccc(F)c1)c1cccc(Oc2ccnc3ccccc23)c1 [compound 10] ; field requested: inhibition at 0.05 µM
Key: 11

Exercise: I would be grateful if you could share the reported inhibition at 0.05 µM for Cc1c(Oc2ccnc3ccccc23)cccc1C(=O)NCc1ccc(C#N)cc1 [compound 30] .
Key: 8

Exercise: Please report the recorded inhibition at 0.05 µM for COc1ccccc1CNC(=O)c1cccc(Oc2ccnc3cc(OC)c(OC)cc23)c1 [compound 26] .
Key: 32

Exercise: Look at this molecule and give its reported inhibition at 0.05 µM. CN(C)c1ccc2c(Oc3cc(C(=O)NCc4ccncc4)ccc3F)ccnc2c1 [compound 143]
Key: 8
